Target: TrwC/Rep chimera (untagged) (plasmid R388 / human adeno-associated virus (AAV)) (UniProt P03132)
Assay: fluorescence polarization
Details: EMSA: 10 mM Hepes-KOH pH 7.5, 10 mM KCl, 3.3 mM MgCl2, 1 mM EDTA, 2.5 mM DTT, 400 ng poly(dI-dC), 15 mM (Rep68) or 75 mM (chimera) NaCl, room temperature 20 min
measure-name: Kd (nM)
Numbers only, in nM.

Given item AGCGCACCGAAAGGTGCGTATTGTCTATAGCCCA [oriTw 34-mer (oriTw(25+8) plus 5' dA)] , the value recorded as its Kd is 16

From: paper PMC6049929
